System: 126254-015-R-J1-PDC complex spheroid growth, % test/control
Experiment: Anticancer human tumor 126254-015-R-J1-PDC patient-derived soft tissue sarcoma cell line growth inhibition [Asc]
Conditions: second compound 0.949 µM; first compound 1 µM; stronger effect = lower value
Excerpt: Multicellular complex tumor spheroid response to apoptosis pathway targeting inhibitors Alrizomadlin, Pelcitoclax, and Dasminapant in combination with a variety of drugs and investigational agents in selected tumor cell lines […] Compounds. […] If the clinical Cmax for an agent had not been determined, the highest concentration tested was 10 microM. […]
Listed here: items and their measured viability, T/C.
Give the number; % is assumed, so skip it.

Sample records with viability, T/C:
Molecule: CNC(C)C(=O)NC1CN(S(=O)(=O)c2cccc(S(=O)(=O)N3CCC4CCC(C(=O)NC(c5ccccc5)c5ccccc5)N4C(=O)C(NC(=O)C(C)NC)C3)c2)CCC2CCC(C(=O)NC(c3ccccc3)c3ccccc3)N2C1=O (stereo not drawn) + CCN1C(C(=O)NC23CCC(C(=O)O)(CC2)CC3)C(c2cccc(Cl)c2F)C2(C(=O)Nc3cc(Cl)ccc32)C12CCCCC2
Unit Of Measurement: %
viability, T/C: 55.7

Molecule: COc1c(OCCCN2CCOCC2)ccc2c3n(c(=NC(=O)c4cnc(N)nc4)nc12)CCN3 + CCN1C(C(=O)NC23CCC(C(=O)O)(CC2)CC3)C(c2cccc(Cl)c2F)C2(C(=O)Nc3cc(Cl)ccc32)C12CCCCC2
Unit Of Measurement: %
viability, T/C: 10.4

Ask: Lab note: need viability, T/C with 126254-015-R-J1-PDC complex spheroid growth, % test/control for entry C=CC(=O)N1CCN(c2nc(=O)n(-c3c(C)ccnc3C(C)C)c3nc(-c4c(O)cccc4F)c(F)cc23)C(C)C1 (stereo not drawn) + CCN1C(C(=O)NC23CCC(C(=O)O)(CC2)CC3)C(c2cccc(Cl)c2F)C2(C(=O)Nc3cc(Cl)ccc32)C12CCCCC2 , please look it up.
Reply: 120

Ask: Lab note: need viability, T/C with 126254-015-R-J1-PDC complex spheroid growth, % test/control for entry C#Cc1c(F)ccc2cc(O)cc(-c3ncc4c(N5CC6CCC(C5)N6)nc(OCC56CCCN5CC(F)C6)nc4c3F)c12 (stereo not drawn) + CCN1C(C(=O)NC23CCC(C(=O)O)(CC2)CC3)C(c2cccc(Cl)c2F)C2(C(=O)Nc3cc(Cl)ccc32)C12CCCCC2 , please look it up.
Reply: 88.7

* * *

Listed here: items and their measured pIC50.
System: 126254-015-R-J1-PDC complex spheroid growth, % test/control
Test: Anticancer human tumor 126254-015-R-J1-PDC cell line growth inhibition [Asc];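 note: spheroids exposed to compound for seven days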
Details: curve of first compound; second compound 0.316 µM
Note: pIC50 values are expressed as the negative base-10 logarithm of concentration in M.

Molecule: C=C(F)C(=O)N1CCN(c2nc(OCC3CCCN3C)nc3c2CCN(c2cccc4cccc(Cl)c24)C3)CC1CC#N (configuration not stated) + Cc1c(S(C)(=O)=O)c(-c2cc(F)cc(N3CCN(c4ccc(NS(=O)(=O)c5ccc(NC(CCN6CCC(C(=O)OCCCP(=O)(O)O)CC6)CSc6ccccc6)c(S(=O)(=O)C(F)(F)F)c5)cc4)CC3)c2)c(-c2ccc(Cl)cc2)n1C(C)C
Value Measured: 5.86
--
Molecule: COc1c(OCCCN2CCOCC2)ccc2c3n(c(=NC(=O)c4cnc(N)nc4)nc12)CCN3 + CNC(C)C(=O)NC1CN(S(=O)(=O)c2cccc(S(=O)(=O)N3CCC4CCC(C(=O)NC(c5ccccc5)c5ccccc5)N4C(=O)C(NC(=O)C(C)NC)C3)c2)CCC2CCC(C(=O)NC(c3ccccc3)c3ccccc3)N2C1=O
Value Measured: 7.70

Ask: Item under review: NC(=O)C(=Cn1cnc(-c2cc(C(F)(F)F)cc(C(F)(F)F)c2)n1)c1cncnc1 + Cc1c(S(C)(=O)=O)c(-c2cc(F)cc(N3CCN(c4ccc(NS(=O)(=O)c5ccc(NC(CCN6CCC(C(=O)OCCCP(=O)(O)O)CC6)CSc6ccccc6)c(S(=O)(=O)C(F)(F)F)c5)cc4)CC3)c2)c(-c2ccc(Cl)cc2)n1C(C)C . Reported pIC50?
Reply: 7.43

Ask: Item under review: O=C(c1ccc(F)c(F)c1Nc1ccc(I)cc1F)N1CC(O)([C@@H]2CCCCN2)C1 + CNC(C)C(=O)NC1CN(S(=O)(=O)c2cccc(S(=O)(=O)N3CCC4CCC(C(=O)NC(c5ccccc5)c5ccccc5)N4C(=O)C(NC(=O)C(C)NC)C3)c2)CCC2CCC(C(=O)NC(c3ccccc3)c3ccccc3)N2C1=O . Reported pIC50?
Reply: 7.06

* * *

Test system: 126254-015-R-J1-PDC complex spheroid growth, % test/control
Assay: Anticancer human tumor 126254-015-R-J1-PDC cell line growth inhibition [Asc];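 note: spheroids exposed to compound for seven days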;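 for viability, T/C: 100% = DMSO vehicle control wells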
Settings: second compound 0.316 µM; first compound 0.1 µM; stronger effect = lower value
From the text: Multicellular complex tumor spheroid response to apoptosis pathway targeting inhibitors Alrizomadlin, Pelcitoclax, and Dasminapant in combination with a variety of drugs and investigational agents in selected tumor cell lines […] Compounds. […] If the clinical Cmax for an agent had not been determined, the highest concentration tested was 10 microM. […]
Checkbox rule: viability, T/C lower than 60% = class 1; viability, T/C not lower than 60% = class 0.

Ask: Below 60% on viability, T/C? Entry O=C(c1cc(Cc2n[nH]c(=O)c3ccccc23)ccc1F)N1CCN(C(=O)C2CC2)CC1 + CNC(C)C(=O)NC1CN(S(=O)(=O)c2cccc(S(=O)(=O)N3CCC4CCC(C(=O)NC(c5ccccc5)c5ccccc5)N4C(=O)C(NC(=O)C(C)NC)C3)c2)CCC2CCC(C(=O)NC(c3ccccc3)c3ccccc3)N2C1=O
Reply: class 1

Ask: Below 60% on viability, T/C? Entry Cn1ncnc1[C@H]1c2n[nH]c(=O)c3cc(F)cc(c23)N[C@@H]1c1ccc(F)cc1 + CNC(C)C(=O)NC1CN(S(=O)(=O)c2cccc(S(=O)(=O)N3CCC4CCC(C(=O)NC(c5ccccc5)c5ccccc5)N4C(=O)C(NC(=O)C(C)NC)C3)c2)CCC2CCC(C(=O)NC(c3ccccc3)c3ccccc3)N2C1=O
Reply: class 1

Ask: Below 60% on viability, T/C? Entry NC1CCC(NC2CC2c2ccccc2)CC1 (stereo not given) + CNC(C)C(=O)NC1CN(S(=O)(=O)c2cccc(S(=O)(=O)N3CCC4CCC(C(=O)NC(c5ccccc5)c5ccccc5)N4C(=O)C(NC(=O)C(C)NC)C3)c2)CCC2CCC(C(=O)NC(c3ccccc3)c3ccccc3)N2C1=O
Reply: class 1

Ask: Below 60% on viability, T/C? Entry NC1CCC(NC2CC2c2ccccc2)CC1 (stereo not given) + Cc1c(S(C)(=O)=O)c(-c2cc(F)cc(N3CCN(c4ccc(NS(=O)(=O)c5ccc(NC(CCN6CCC(C(=O)OCCCP(=O)(O)O)CC6)CSc6ccccc6)c(S(=O)(=O)C(F)(F)F)c5)cc4)CC3)c2)c(-c2ccc(Cl)cc2)n1C(C)C
Reply: class 0

Ask: Below 60% on viability, T/C? Entry CNC(C)C(=O)NC1CN(S(=O)(=O)c2cccc(S(=O)(=O)N3CCC4CCC(C(=O)NC(c5ccccc5)c5ccccc5)N4C(=O)C(NC(=O)C(C)NC)C3)c2)CCC2CCC(C(=O)NC(c3ccccc3)c3ccccc3)N2C1=O (stereo not given) + Cc1c(S(C)(=O)=O)c(-c2cc(F)cc(N3CCN(c4ccc(NS(=O)(=O)c5ccc(NC(CCN6CCC(C(=O)OCCCP(=O)(O)O)CC6)CSc6ccccc6)c(S(=O)(=O)C(F)(F)F)c5)cc4)CC3)c2)c(-c2ccc(Cl)cc2)n1C(C)C
Reply: class 1

* * *

System: 126254-015-R-J1-PDC complex spheroid growth, % test/control
Experiment: Anticancer human tumor 126254-015-R-J1-PDC cell line growth inhibition [Asc];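 note: spheroids exposed to compound for seven days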;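 for viability, T/C: 100% = DMSO vehicle control wells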
Settings: second compound 3 µM; first compound 0.01 µM; stronger effect = lower value
Description: Multicellular complex tumor spheroid response to apoptosis pathway targeting inhibitors Alrizomadlin, Pelcitoclax, and Dasminapant in combination with a variety of drugs and investigational agents in selected tumor cell lines […] Compounds. […] If the clinical Cmax for an agent had not been determined, the highest concentration tested was 10 microM. […]
Listed here: items and their measured viability, T/C.
Give the number; % is assumed, so skip it.

Molecule: Cn1ncnc1[C@H]1c2n[nH]c(=O)c3cc(F)cc(c23)N[C@@H]1c1ccc(F)cc1 + CCN1C(C(=O)NC23CCC(C(=O)O)(CC2)CC3)C(c2cccc(Cl)c2F)C2(C(=O)Nc3cc(Cl)ccc32)C12CCCCC2
Readout Kind: viability, T/C
Value Measured: 84.8
//
Molecule: CNC(C)C(=O)NC1CN(S(=O)(=O)c2cccc(S(=O)(=O)N3CCC4CCC(C(=O)NC(c5ccccc5)c5ccccc5)N4C(=O)C(NC(=O)C(C)NC)C3)c2)CCC2CCC(C(=O)NC(c3ccccc3)c3ccccc3)N2C1=O (stereo unspecified) + CCN1C(C(=O)NC23CCC(C(=O)O)(CC2)CC3)C(c2cccc(Cl)c2F)C2(C(=O)Nc3cc(Cl)ccc32)C12CCCCC2
Readout Kind: viability, T/C
Value Measured: 80.8
//
Molecule: CCN1CCN(Cc2ccc(Nc3ncc(F)c(-c4cc(F)c5nc(C)n(C(C)C)c5c4)n3)nc2)CC1 + CCN1C(C(=O)NC23CCC(C(=O)O)(CC2)CC3)C(c2cccc(Cl)c2F)C2(C(=O)Nc3cc(Cl)ccc32)C12CCCCC2
Readout Kind: viability, T/C
Value Measured: 93.8

Ask: Item under review: COc1c(OCCCN2CCOCC2)ccc2c3n(c(=NC(=O)c4cnc(N)nc4)nc12)CCN3 + CCN1C(C(=O)NC23CCC(C(=O)O)(CC2)CC3)C(c2cccc(Cl)c2F)C2(C(=O)Nc3cc(Cl)ccc32)C12CCCCC2 . Reported viability, T/C?
Reply: 85.3

Ask: Item under review: O=C(c1ccc(F)c(F)c1Nc1ccc(I)cc1F)N1CC(O)([C@@H]2CCCCN2)C1 + CCN1C(C(=O)NC23CCC(C(=O)O)(CC2)CC3)C(c2cccc(Cl)c2F)C2(C(=O)Nc3cc(Cl)ccc32)C12CCCCC2 . Reported viability, T/C?
Reply: 99.7

Ask: Item under review: NC1CCC(NC2CC2c2ccccc2)CC1 (stereo unspecified) + CCN1C(C(=O)NC23CCC(C(=O)O)(CC2)CC3)C(c2cccc(Cl)c2F)C2(C(=O)Nc3cc(Cl)ccc32)C12CCCCC2 . Reported viability, T/C?
Reply: 74.5
